# Substrate: gfPET
# TEST_PROTOCOL: Proxy for plastic degradation [Released monomer concentration (HPLC/LC-MS) (TPA+MHET+BHET)]
# TEST_CONDITIONS: 85 °C
READOUT: Proxy for plastic degradation (mmol/h)
Give your result in mmol/h as a bare value.

### Prompt Can you share its Proxy for plastic degradation? I mean this protein: unnamed (protein) MDNPYERGPDPTTQSVEAARGPYAVSQITVGGQFGSYSGGTIYYPTSTTDGKFGAVAIAPGFLSFQSSVAWLGPRIASQGFVVMTIDTGTIFDQPAQRGDQLLDALDFLTQRSSVKDRIDPNRLAVAGWSMGGGGSLEAAADRPSLKAAIPMAGWNLNTNWSRLTTPVLVVGVQNDLIAPVAMHSEPFYNSIRSEKAYLELAGGSHFTVTSANTPQAKLMISWLKRFVDNDTRYEQFICPGPSRGFSVSEYRSTCPF
### Response 0

### Prompt Can you check unnamed (protein) MENPYERGPDPTTQSVEAARGPYAVSQITVGGQFGSYSGGTIYYPTSTADGKFGAVAIAPGFLSFQSSVAWLGPRIASQGFVVMTIDTGTIFDQPAQRGDQLLDALDFLTQRSSVKDRIDPNRLAVAGWSWGGGGSLEAAADRPSLKAAIPMAGWNLNTNWSRLTTPVLVVGVQNDLIAPVAMHSEPFYNSIRSEKAYLELAGGSHFTVTSANTPQAKLMISWLKRFVDNDTRYEQFICPGPSRGFSVSEYRSTCPY next?
### Response 0

### Prompt Also need unnamed (protein) MDNPYERGPDPTTQSVEAARGPYAVSQITVGGQFGSYSGGTIYYPTSTADGKFGAVAIAPGFLSFQSSVAWLGPRLASQGFVVMTIDTGTIFDQPAQRGDQLLDALDFLTQRSSVKDRIDPNRLAVAGWSMGGGGSLEAAADRPSLKAAIPMAGWNLNTNWSRLTTPVLVVGVQNDLIAPVGSHSEPFYNSIRSEKAYLELAGGSHFTVTSANTPQAKLMISWLKRFVDNDTRYEQFICPGPSRGFSVSEYRSTCPF , thanks.
### Response 0
